targetSystem: irisin (Homo sapiens, UniProt Q8NAU1)
Sequence (Q8NAU1 80-191): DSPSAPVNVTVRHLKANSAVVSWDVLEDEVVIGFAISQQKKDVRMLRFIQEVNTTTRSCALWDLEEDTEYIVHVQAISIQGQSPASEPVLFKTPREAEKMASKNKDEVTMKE
Where a name gives a salt, the structure may show the parent alone.
measurementType: pKd
// pKd: -log10(molar conc.)

Q: Would you please give the reported pKd of CCN(C)C(=O)Oc1cccc([C@H](C)N(C)C)c1 [RT, rivastigmine tartrate] with irisin (Homo sapiens, UniProt Q8NAU1)?
A: 4.84
